Values from paper PMC3358524

target-desc: HLA-A*3001 (Homo sapiens, UniProt P04439, D140H/D185E/E176W/F33S/G80R/H175R/K168Q/R138E/R41S)
assay-info: Competitive peptide-binding assay, purified HLA-A*3001
Peptide text beside a SMILES is read from it.
Listed here: items and their measured IC50.

>  <compound>
CC(C)C[C@H](NC(=O)[C@H](C)NC(=O)[C@@H](N)CC(C)C)C(=O)N[C@@H](CCC(=O)O)C(=O)N[C@H](C(=O)N[C@@H](C)C(=O)N[C@@H](CCCNC(=N)N)C(=O)N[C@@H](CCC(N)=O)C(=O)N[C@@H](CCCCN)C(=O)N[C@@H](CCCNC(=N)N)C(=O)O)C(C)C [Mouse Ins1 C22-31] (H-LALEVARQKR-OH)

>  <unit-spec>
µM

>  <modifier>
=

>  <IC50>
43

$$$$
>  <compound>
CC(C)C[C@H](NC(=O)[C@H](C)NC(=O)[C@@H](N)CC(C)C)C(=O)N[C@@H](CCC(=O)O)C(=O)NCC(=O)N[C@@H](CO)C(=O)N[C@@H](CC(C)C)C(=O)N[C@@H](CCC(N)=O)C(=O)N[C@@H](CCCCN)C(=O)N[C@@H](CCCNC(=N)N)C(=O)O [Human Ins C24-33] (H-LALEGSLQKR-OH)

>  <unit-spec>
µM

>  <modifier>
>

>  <IC50>
50

$$$$
>  <compound>
CC[C@H](C)[C@H](NC(=O)[C@H](C)N)C(=O)N[C@@H](CC(N)=O)C(=O)N[C@@H](CO)C(=O)N[C@@H](CCC(=O)O)C(=O)N[C@@H](CCSC)C(=O)N[C@@H](Cc1ccccc1)C(=O)N[C@@H](CC(C)C)C(=O)N[C@@H](CC(C)C)C(=O)O [Human IGRP 272–280] (H-AINSEMFLL-OH)

>  <unit-spec>
µM

>  <modifier>
=

>  <IC50>
6.78

$$$$
>  <compound>
CC[C@H](C)[C@H](NC(=O)[C@H](C)N)C(=O)N[C@@H](CC(N)=O)C(=O)N[C@@H](CO)C(=O)N[C@@H](CCC(=O)O)C(=O)N[C@@H](CCSC)C(=O)N[C@@H](Cc1ccccc1)C(=O)N[C@@H](CC(C)C)C(=O)N[C@@H](CCCNC(=N)N)C(=O)O [Mouse IGRP 272–280] (H-AINSEMFLR-OH)

>  <unit-spec>
µM

>  <modifier>
=

>  <IC50>
49.8

$$$$

* * *

target-desc: HLA-A*6801 (Homo sapiens, UniProt P04439, A269V/D185E/E176V/E277Q/E87N/F33Y/G231S/I121M/I166T/I218V/L180W/L300P/L318F/N151K/P208A/P217A/Q86R/R169H/T345S)
assay-info: Competitive peptide-binding assay, purified HLA-A*6801
Peptide text beside a SMILES is read from it.
Lab note: compare IC50 with 10 µM, writing MET if less and NOT MET if equal or more.

>  <molecule>
CC[C@H](C)[C@H](NC(=O)[C@H](C)N)C(=O)N[C@@H](CC(N)=O)C(=O)N[C@@H](CO)C(=O)N[C@@H](CCC(=O)O)C(=O)N[C@@H](CCSC)C(=O)N[C@@H](Cc1ccccc1)C(=O)N[C@@H](CC(C)C)C(=O)N[C@@H](CC(C)C)C(=O)O [Human IGRP 272–280] (H-AINSEMFLL-OH)

>  <discrete-label>
NOT MET

$$$$
>  <molecule>
CC[C@H](C)[C@H](NC(=O)[C@H](C)N)C(=O)N[C@@H](CC(N)=O)C(=O)N[C@@H](CO)C(=O)N[C@@H](CCC(=O)O)C(=O)N[C@@H](CCSC)C(=O)N[C@@H](Cc1ccccc1)C(=O)N[C@@H](CC(C)C)C(=O)N[C@@H](CCCNC(=N)N)C(=O)O [Mouse IGRP 272–280] (H-AINSEMFLR-OH)

>  <discrete-label>
MET

$$$$
>  <molecule>
CC(C)C[C@H](NC(=O)[C@H](C)NC(=O)[C@H](CC(C)C)NC(=O)[C@@H]1CCCN1)C(=O)N[C@@H](CCC(=O)O)C(=O)NCC(=O)N[C@@H](CO)C(=O)N[C@@H](CC(C)C)C(=O)N[C@@H](CCC(N)=O)C(=O)N[C@@H](CCCCN)C(=O)O [Human Ins C23-32] (H-PLALEGSLQK-OH)

>  <discrete-label>
NOT MET

$$$$
>  <molecule>
CC(C)C[C@H](NC(=O)[C@H](C)NC(=O)[C@@H](N)CC(C)C)C(=O)N[C@@H](CCC(=O)O)C(=O)NCC(=O)N[C@@H](CO)C(=O)N[C@@H](CC(C)C)C(=O)N[C@@H](CCC(N)=O)C(=O)N[C@@H](CCCCN)C(=O)N[C@@H](CCCNC(=N)N)C(=O)O [Human Ins C24-33] (H-LALEGSLQKR-OH)

>  <discrete-label>
MET

$$$$
>  <molecule>
CC(C)C[C@H](NC(=O)[C@H](C)NC(=O)[C@H](CC(C)C)NC(=O)[C@@H](N)[C@@H](C)O)C(=O)N[C@@H](CCC(=O)O)C(=O)N[C@H](C(=O)N[C@@H](C)C(=O)N[C@@H](CCC(N)=O)C(=O)N[C@@H](CCC(N)=O)C(=O)N[C@@H](CCCCN)C(=O)O)C(C)C [Mouse Ins2 C23-32] (H-TLALEVAQQK-OH)

>  <discrete-label>
MET

$$$$
>  <molecule>
CC(C)C[C@H](NC(=O)[C@H](C)NC(=O)[C@@H](N)CC(C)C)C(=O)N[C@@H](CCC(=O)O)C(=O)N[C@H](C(=O)N[C@@H](C)C(=O)N[C@@H](CCCNC(=N)N)C(=O)N[C@@H](CCC(N)=O)C(=O)N[C@@H](CCCCN)C(=O)N[C@@H](CCCNC(=N)N)C(=O)O)C(C)C [Mouse Ins1 C22-31] (H-LALEVARQKR-OH)

>  <discrete-label>
NOT MET

$$$$
>  <molecule>
CC(C)C[C@H](NC(=O)[C@H](C)NC(=O)[C@H](CC(C)C)NC(=O)[C@@H](N)[C@@H](C)O)C(=O)N[C@@H](CCC(=O)O)C(=O)N[C@H](C(=O)N[C@@H](C)C(=O)N[C@@H](CCCNC(=N)N)C(=O)N[C@@H](CCC(N)=O)C(=O)N[C@@H](CCCCN)C(=O)O)C(C)C [Mouse Ins1 C21-30] (H-TLALEVARQK-OH)

>  <discrete-label>
NOT MET

$$$$
